Where do these numbers come from? They come from ChEMBL document CHEMBL3792339.

System: C127-LT
Assay: Inhibition of HDAC in mouse C127-LT cells assessed as activation of EGFP expression at 10 uM after 24 hrs by fluorescence microscopy
Format: cell-based
Activity calls are given as the source filed them. The calls are words filed in the database; no cut-off is given here.
Parameter call: string, one of active, inactive

• COC(=O)[C@]1(O)C[C@@H](OC(=O)/C=C/c2ccc(O)c(O)c2)[C@@H](O)[C@H](OC(=O)/C=C/c2ccc(O)c(O)c2)C1 = active
• C=C1[C@@H]2[C@H]3OC(=O)[C@@H](CN[C@@H](Cc4c[nH]c5ccccc45)C(=O)O)[C@@H]3[C@@H](O)CC(=C)[C@@H]2C[C@@H]1O = inactive
• C=C1[C@@H]2[C@H]3OC(=O)[C@@H](CN4CCC[C@H]4C(=O)O)[C@@H]3[C@@H](OC(=O)C(C)(O)CO)CC(=C)[C@@H]2C[C@@H]1O (some centres not stated) = inactive
• CC(=O)OCCc1ccc(O)c(O)c1 = active
• C=C1[C@@H]2[C@H]3OC(=O)[C@@H](CN[C@H](C(=O)O)C(C)C)[C@@H]3[C@@H](O)CC(=C)[C@@H]2C[C@@H]1O = inactive

Prompt: What outcome does the record of this test show for "COc1cc(-c2oc3cc(O)cc(O)c3c(=O)c2O[C@@H]2O[C@H](CO[C@@H]3O[C@@H](C)[C@H](O)[C@@H](O)[C@H]3O)[C@@H](O)[C@H](O)[C@H]2O)ccc1O" ?
Completion: active

Prompt: Outcome? "O=C(/C=C/c1ccc(O)c(O)c1)O[C@@H]1C[C@](O)(C(=O)O)C[C@@H](O)[C@H]1O"
Completion: inactive

###

System: C127-LT
Test: Inhibition of HDAC in mouse C127-LT cells assessed as activation of EGFP expression at 10 uM after 24 hrs by fluorescence microscopy
Format: cell-based
Active and inactive are the calls of the source. The rule behind the calls is not given here.
Give one outcome, nothing more. List: active, inactive

* COc1cc2c3c(cc4ccccc4c3c1O)NC2=O | inactive

Prompt: Please share the test call associated with "O=C(/C=C/c1ccc(O)c(O)c1)O[C@@H]1C[C@](O)(C(=O)O)C[C@@H](OC(=O)/C=C/c2ccc(O)c(O)c2)[C@H]1O" .
Completion: inactive

Prompt: Would you mind telling me which call this test gave "COc1ccc2cc3[n+](cc2c1OC)CCc1cc2c(cc1-3)OCO2" ?
Completion: active

Prompt: Returns: the outcome recorded for C=C1C(=O)O[C@@H]2[C@H]3C(=C)[C@@H](O)C[C@H]3C(=C)C[C@H](OC(=O)C(C)(O)CO)[C@@H]12 (stereo not given in full) in this assay.
Completion: inactive

Prompt: Called result for "O=C(/C=C/c1ccc(O)c(O)c1)O[C@@H]1C[C@@](O)(C(=O)O)C[C@@H](O)[C@@H]1O"
Completion: inactive

###

Biological target: Histone deacetylase
Test: Inhibition of HDAC in human HeLa cells using Boc-Lys(AC)-AMC as substrate after 24 to 48 hrs by spectrofluorometry
Format: cell-based
measured-quantity: IC50

Past entries and their recorded results:
* O=C(/C=C/c1ccc(O)c(O)c1)O[C@@H]1C[C@](O)(C(=O)O)C[C@@H](O)[C@H]1O [CHLOROGENIC ACID] | > 200 µM
* O=C(/C=C/c1ccc(O)c(O)c1)O[C@@H]1C[C@@](O)(C(=O)O)C[C@@H](O)[C@@H]1O | > 200 µM
* O=C(/C=C/c1ccc(O)c(O)c1)O[C@@H]1C[C@](O)(C(=O)O)C[C@@H](OC(=O)/C=C/c2ccc(O)c(O)c2)[C@H]1O | > 500 µM

Prompt: Which IC50 is listed for "COC(=O)[C@]1(O)C[C@@H](OC(=O)/C=C/c2ccc(O)c(O)c2)[C@@H](O)[C@H](OC(=O)/C=C/c2ccc(O)c(O)c2)C1" ?
Completion: 7.59 µM

###

Test system: C127-LT
Assay: Inhibition of HDAC in mouse C127-LT cells assessed as activation of EGFP expression at 10 uM after 24 hrs by fluorescence microscopy
Type: cell-based
The source made the active and inactive calls. The rule behind the calls is not given here.
Choose one outcome from this list and give only that: label 1 = active, label 0 = inactive

Prompt: Short answer needed: outcome of this test for "C=C(CO)C(=O)O[C@H]1CC(=C)[C@@H]2C[C@H](O)C(=C)[C@@H]2[C@H]2OC(=O)C(=C)[C@@H]21" ?
Completion: label 0

Prompt: Which outcome was assigned to "C=C1C(=O)O[C@@H]2[C@H]3C(=C)[C@@H](O)C[C@H]3C(=C)C[C@H](OC(=O)CC(C)(C)O)[C@@H]12" in this test?
Completion: label 0

Prompt: // param item: C=C1CC[C@@H]2[C@](C)(CCC[C@]2(C)C(=O)O)[C@H]1CCC1=CC(OCCCC)OC1=O (stereo not given in full) ; yields the recorded call
Completion: label 0

Prompt: Please indicate how the test categorized "COc1cc2c(cc1OC)[C@@H]1Cc3ccc(O)c(O)c3CN1CC2" .
Completion: label 1

Prompt: Please indicate how the test categorized "Nc1ccccc1NC(=O)c1ccc(CNC(=O)OCc2cccnc2)cc1" .
Completion: label 1

###

Below, each entry is listed with its recorded IC50.
Biological target: Histone deacetylase
Assay: Inhibition of HDAC in human HeLa nuclear extract using fluor de lys as substrate after 10 to 15 mins by spectrofluorometry
Assay type: protein assay
Number in µM, nothing else.

Worked examples, 2 molecules total:
- COC(=O)[C@]1(O)C[C@@H](OC(=O)/C=C/c2ccc(O)c(O)c2)[C@@H](O)[C@H](OC(=O)/C=C/c2ccc(O)c(O)c2)C1: 4.99
- O=C(/C=C/c1ccc(O)c(O)c1)O[C@@H]1C[C@](O)(C(=O)O)C[C@@H](OC(=O)/C=C/c2ccc(O)c(O)c2)[C@H]1O: 143.24

Now consider the entry below.
Prompt: Entry under review: "O=C(/C=C/c1ccc(O)c(O)c1)O[C@@H]1C[C@@](O)(C(=O)O)C[C@@H](O)[C@@H]1O" . Reported IC50?
Completion: 170.4
